# assayed.system: Nrg2 (UniProt P38082)
# Sequence: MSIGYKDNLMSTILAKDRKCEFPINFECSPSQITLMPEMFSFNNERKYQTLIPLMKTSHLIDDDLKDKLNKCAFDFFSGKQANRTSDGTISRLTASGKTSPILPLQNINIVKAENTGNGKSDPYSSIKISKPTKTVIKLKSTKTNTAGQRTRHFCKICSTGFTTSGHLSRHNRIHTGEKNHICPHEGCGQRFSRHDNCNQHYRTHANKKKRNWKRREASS
# protocol.text: PBM E-score (8-mer binding enrichment) (E-score (-0.5 to 0.5)); higher = stronger / more preferred TF binding
# protocol.conditions: protein concentration: 100 nM; construct: GST-full length
In all, about 33,000 sequences were measured (“E-score (-0.5 to 0.5)”: median about -8e-05, highest 2% from about 0.23 on). Shown is part of a subset that was picked to be rich in the highest values.
Mark true (1) for reported PBM E-score of 0.1 or greater; mark false (0) for anything smaller.

These solved cases illustrate the format of a correct answer.
{"residue.codes": "GAAGAGAA", "label.class": "false (0)"}
{"residue.codes": "ATTTTGAC", "label.class": "true (1)"}
{"residue.codes": "CAAAACCC", "label.class": "true (1)"}
{"residue.codes": "CAAGAGAG", "label.class": "false (0)"}
{"residue.codes": "AATCATAC", "label.class": "true (1)"}

Prompt: # check: PBM E-score of CAGACCAA is greater than or equal to 0.1
Completion: false (0)

Prompt: Given AAGAATGT , state whether its PBM E-score is at least 0.1.
Completion: true (1)

Prompt: Is the recorded value of PBM E-score equal to or greater than 0.1 for this sequence? CACAAGAG
Completion: true (1)

Prompt: Please check the record AAAAACCA and state if its PBM E-score is at or above 0.1.
Completion: true (1)

Prompt: Is it the case that CCGCTAAA has PBM E-score reaching or exceeding 0.1?
Completion: false (0)

Prompt: Test whether the sequence GTGTAGCA records PBM E-score of 0.1 or higher.
Completion: false (0)

Prompt: Has ATTTGCTC a recorded PBM E-score greater than or equal to 0.1?
Completion: true (1)

Prompt: Determine whether measured PBM E-score meets or exceeds 0.1 for CTACAATA
Completion: false (0)

Prompt: Tell me whether PBM E-score is at least 0.1 here: CGTTCACC
Completion: false (0)

====

# assayed.system: Nrg2 (UniProt P38082)
# Sequence: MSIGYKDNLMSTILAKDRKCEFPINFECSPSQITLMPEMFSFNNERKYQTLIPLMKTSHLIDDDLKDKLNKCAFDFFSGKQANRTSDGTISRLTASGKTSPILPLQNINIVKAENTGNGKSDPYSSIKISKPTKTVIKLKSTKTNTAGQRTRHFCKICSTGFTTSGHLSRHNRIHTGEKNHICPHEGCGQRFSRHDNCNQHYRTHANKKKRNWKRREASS
# protocol.text: PBM E-score (8-mer binding enrichment) (E-score (-0.5 to 0.5)); higher = stronger / more preferred TF binding
# protocol.conditions: protein concentration: 100 nM; construct: GST-full length
The full ranking holds about 33,000 sequences; the median of “E-score (-0.5 to 0.5)” is about -8e-05, and the highest 2% start at about 0.23. The sample holds the highest values, similar sequences and a random draw of the others, so the mix is not that of the screen.
result.type: PBM E-score
Respond using a number only.

Examples with their reported PBM E-score follow.
{"residue.codes": "AGACAGTA", "assayed.system": "Nrg2 (UniProt P38082)", "observed.value": 0.0173}
{"residue.codes": "CAGTATGA", "assayed.system": "Nrg2 (UniProt P38082)", "observed.value": 0.178}
{"residue.codes": "CGCAACTC", "assayed.system": "Nrg2 (UniProt P38082)", "observed.value": 0.147}
{"residue.codes": "CGGCAGAA", "assayed.system": "Nrg2 (UniProt P38082)", "observed.value": 0.154}
{"residue.codes": "ATTCATAG", "assayed.system": "Nrg2 (UniProt P38082)", "observed.value": 0.155}
{"residue.codes": "GATACATA", "assayed.system": "Nrg2 (UniProt P38082)", "observed.value": 0.246}
{"residue.codes": "CCTCGAAG", "assayed.system": "Nrg2 (UniProt P38082)", "observed.value": 0.0341}
{"residue.codes": "GCTCGAGC", "assayed.system": "Nrg2 (UniProt P38082)", "observed.value": 0.24}
{"residue.codes": "GGCGAGCC", "assayed.system": "Nrg2 (UniProt P38082)", "observed.value": -0.0861}
{"residue.codes": "CGGTGAAG", "assayed.system": "Nrg2 (UniProt P38082)", "observed.value": -0.222}

Prompt: Which PBM E-score value belongs to CCTCGAGC ?
Completion: 0.267

Prompt: Quick one: PBM E-score for ATTCATAC ?
Completion: 0.238

Prompt: Suppose we examine the sequence ACTCGAGC ; what PBM E-score value has been reported?
Completion: 0.073
